Target: Kras and SOS1 (biotin-tagged human Kras loaded with GDP, His-tagged human SOS1) (Homo sapiens, UniProt P01116, G12D)
Construct: made in house; host or cells: E. coli (stated for Kras only)
Sequence (P01116 1-188 isoform P01116-2 G12D): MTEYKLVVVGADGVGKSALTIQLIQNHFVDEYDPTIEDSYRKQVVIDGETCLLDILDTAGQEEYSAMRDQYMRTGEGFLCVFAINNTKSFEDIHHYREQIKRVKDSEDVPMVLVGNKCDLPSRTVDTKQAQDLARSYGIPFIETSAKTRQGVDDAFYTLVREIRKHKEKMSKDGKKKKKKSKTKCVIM
Experiment: Protein-protein interaction inhibition between Kras and SOS1 (KrasGl2D-SOS PPI) using AlphaScreen
Format: binding
Conditions: AlphaScreen; biotin-tagged human Kras loaded with GDP, His-tagged human SOS1; read-out: KRAS G12D-SOS PPI IC50
Starred links: 1 amine or outer side, 2 acyl side, 3 side chain; linkers in the order of their positions; H or OH if unused. Positions of bridges follow the written chain, without caps; N, C: chain ends. Non-standard residues stand in square brackets, D forms with d. Residues, ends and D or L forms follow the SMILES beside them. *: point of attachment. hPhe(3-Cl-4-CF3) = N[C@@H](CCc1ccc(C(F)(F)F)c(Cl)c1)C(=O)O; hPhe(4-CF3) = N[C@@H](CCc1ccc(C(F)(F)F)cc1)C(=O)O; 3Oxa8azabicyclo(3.2.1)octane = C1CC2COCC1N2*; NMePhe(4-Cl) = CN[C@@H](Cc1ccc(Cl)cc1)C(=O)O; NMePhe(4-Me) = CN[C@@H](Cc1ccc(C)cc1)C(=O)O; Phe(3-I) = N[C@@H](Cc1cccc(I)c1)C(=O)O; dβ3hPip = O=C(C[C@H]1CCCCN1[*:1])[*:2]; NMeGly(cBu) = CN[C@H](C(=O)O)C1CCC1; NMeCha = CN[C@@H](CC1CCCCC1)C(=O)O; NMeChg = CN[C@H](C(=O)O)C1CCCCC1; NMeI = CC[C@H](C)[C@H](NC)C(=O)O; dNMeF = CN[C@H](Cc1ccccc1)C(=O)O; NMeD = CN[C@@H](CC(=O)O)C(=O)O; CH2CONHtBu = CC(C)(C)NC(=O)C*; NMeL = CN[C@@H](CC(C)C)C(=O)O; NMeNva = CCC[C@H](NC)C(=O)O; NMeV = CN[C@H](C(=O)O)C(C)C; NMeA = CN[C@@H](C)C(=O)O; NMeAib = CNC(C)(C)C(=O)O; Nle = CCCC[C@H](N)C(=O)O; Piperidide = C1CCN(*)CC1; Pyrrolidide = C1CCN(*)C1; Ac5c = NC1(C(=O)O)CCCC1; Aze = O=C(O)[C@@H]1CCN1; Sar = CNCC(=O)O
Each item that follows carries a reported pIC50.
Scale: pIC50 equals -log10([C]), with [C] in mol/L.

1) CC[C@H](C)[C@@H]1NC(=O)[C@H](C)N(C)C(=O)C[C@@H](C(=O)N2CCCC2)NC(=O)[C@H](CC(C)C)N(C)C(=O)[C@H](COCC(=O)NC(C)(C)C)NC(=O)[C@H](CC(C)C)NC(=O)[C@H](CCc2ccc(C(F)(F)F)cc2)NC(=O)CN(C)C(=O)[C@H](Cc2ccc(Cl)cc2)N(C)C(=O)CN(C)C(=O)CN(C)C1=O [Compound 53] ([NMeA]I[Sar][Sar][NMePhe(4-Cl)][Sar][hPhe(4-CF3)]LS(CH2CONHtBu)[NMeL]D-Pyrrolidide; lactam N-11)    6.92
2) CC[C@H](C)[C@@H]1NC(=O)[C@H](CC(C)C)N(C)C(=O)C[C@H]2CCCCN2C(=O)[C@H](C(C)C)N(C)C(=O)C2(CCCC2)NC(=O)[C@@H]2CCCN2C(=O)[C@H](CCc2ccc(C(F)(F)F)c(Cl)c2)NC(=O)CN(C)C(=O)[C@H](CC2CCCCC2)N(C)C(=O)CN(C)C(=O)CN(C)C1=O [Compound 747] (cyclo([Ac5c][NMeV][dβ3hPip][NMeL]I[Sar][Sar][NMeCha][Sar][hPhe(3-Cl-4-CF3)]P))    7.96
3) CC[C@H](C)[C@@H]1NC(=O)[C@H](CC(C)C)N(C)C(=O)C[C@@H](C(=O)N2CCCCC2)N(C)C(=O)[C@H](C2CCC2)N(C)C(=O)C2(CCCC2)NC(=O)[C@@H]2CCCN2C(=O)[C@H](CCc2ccc(C(F)(F)F)c(Cl)c2)NC(=O)CN(C)C(=O)[C@H](CC2CCCCC2)N(C)C(=O)CN(C)C(=O)CN(C)C1=O [Compound 1128] ([NMeL]I[Sar][Sar][NMeCha][Sar][hPhe(3-Cl-4-CF3)]P[Ac5c][NMeGly(cBu)][NMeD]-Piperidide; lactam N-11)    8.68
4) CC[C@H](C)[C@@H]1NC(=O)[C@H](C2CCCCC2)N(C)C(=O)C[C@@H](C(=O)N2CCCCC2)N(C)C(=O)[C@H](C2CCCCC2)N(C)C(=O)C2(CCCC2)NC(=O)[C@@H]2CCCN2C(=O)[C@H](CCc2ccc(C(F)(F)F)c(Cl)c2)NC(=O)CN(C)C(=O)[C@H](CC2CCCCC2)N(C)C(=O)CN(C)C(=O)CN(C)C1=O [Compound 849] ([NMeChg]I[Sar][Sar][NMeCha][Sar][hPhe(3-Cl-4-CF3)]P[Ac5c][NMeChg][NMeD]-Piperidide; lactam N-11)    8.72
5) CCC[C@H]1C(=O)N[C@@H]([C@@H](C)CC)C(=O)N(C)CC(=O)N(C)CC(=O)N(C)[C@@H](Cc2ccc(C)cc2)C(=O)N(C)CC(=O)N[C@@H](CCc2ccc(C(F)(F)F)c(Cl)c2)C(=O)N2CCC[C@H]2C(=O)NC2(CCCC2)C(=O)N(C)[C@@H](C2CCCCC2)C(=O)N(C)[C@H](C(=O)N2C3CCC2COC3)CC(=O)N1C [Compound 1994] ([NMeNva]I[Sar][Sar][NMePhe(4-Me)][Sar][hPhe(3-Cl-4-CF3)]P[Ac5c][NMeChg][NMeD]-{3Oxa8azabicyclo(3.2.1)octane}; lactam N-11)    9.24
6) CC(C)C[C@H]1C(=O)N[C@@H](CO)C(=O)N(C)CC(=O)N(C)CC(=O)N(C)[C@@H](CC2CCCCC2)C(=O)N(C)CC(=O)N[C@@H](CCc2ccc(C(F)(F)F)c(Cl)c2)C(=O)N2CCC[C@H]2C(=O)NC2(CCCC2)C(=O)N(C)[C@@H](C2CCCCC2)C(=O)N(C)[C@H](C(=O)N2CCCCC2)CC(=O)N1C [Compound 1799] ([NMeL]S[Sar][Sar][NMeCha][Sar][hPhe(3-Cl-4-CF3)]P[Ac5c][NMeChg][NMeD]-Piperidide; lactam N-11)    7.82
7) CCCC[C@@H]1NC(=O)[C@H](Cc2ccccc2)NC(=O)CN(C)C(=O)[C@H](Cc2ccc(Cl)cc2)N(C)C(=O)CN(C)C(=O)CN(C)C(=O)[C@H]([C@@H](C)CC)NC(=O)[C@H](CC(C)C)N(C)C(=O)C[C@@H](C(=O)N2CCCCC2)N(C)C(=O)[C@H](CC(C)C)NC(=O)C(C)(C)N(C)C1=O [Compound 1043] ([NMeL]I[Sar][Sar][NMePhe(4-Cl)][Sar]F[Nle][NMeAib]L[NMeD]-Piperidide; lactam N-11)    7.22
8) CCCC[C@@H]1NC(=O)[C@H](Cc2cccc(I)c2)NC(=O)CN(C)C(=O)[C@H](Cc2ccc(Cl)cc2)N(C)C(=O)CN(C)C(=O)CN(C)C(=O)[C@H]([C@@H](C)CC)NC(=O)[C@H](CC(C)C)N(C)C(=O)C[C@@H](C(=O)N2CCCCC2)N(C)C(=O)[C@H](CC(C)C)NC(=O)[C@H](Cc2ccc(Cl)cc2)N(C)C1=O [Compound 934] ([NMeL]I[Sar][Sar][NMePhe(4-Cl)][Sar][Phe(3-I)][Nle][NMePhe(4-Cl)]L[NMeD]-Piperidide; lactam N-11)    7.47

# context switch: different molecule, same pIC50
q: Kindly indicate its recorded pIC50. Item: CC[C@H](C)[C@@H]1NC(=O)[C@H](CC(C)C)N(C)C(=O)C[C@@H](C(=O)N(C)C)N(C)C(=O)[C@H]([C@@H](C)CC)N(C)C(=O)C2(CCCC2)NC(=O)[C@@H](Cc2ccccc2)N(C)C(=O)[C@H](CCc2ccc(C(F)(F)F)c(Cl)c2)NC(=O)CN(C)C(=O)[C@H](Cc2ccc(C)cc2)N(C)C(=O)[C@@H]2CCN2C(=O)[C@H](C)N(C)C1=O [Compound 1909] ([NMeL]I[NMeA][Aze][NMePhe(4-Me)][Sar][hPhe(3-Cl-4-CF3)][dNMeF][Ac5c][NMeI][NMeD]-NMe2; lactam N-11)
a: 6.96
